Sourced from paper PMC9202851

# MIC per entry
- System: Mycobacterium tuberculosis H37RV
- experiment-notes: In vitro antitubercular activity by MABA (Alamar Blue)
- Assay type: cell-based
- assay-setup: Mycobacterium tuberculosis, H37RV, 120 h, Mycobacterium tuberculosis H37RV, MABA, Middlebrook 7H9 broth, 37°C five days; read-out: H37RV MIC

| compound | assay-metric | endpoint-result |
| --- | --- | --- |
| O=C(/C=C/c1ccccc1[N+](=O)[O-])c1ccc(OC(F)(F)F)cc1 | MIC | 148 µM |
| O=C(/C=C/c1c[nH]c2ccccc12)c1ccc(C(F)(F)F)cc1 | MIC | 145 µM |
| O=C(/C=C/c1cccc([N+](=O)[O-])c1)c1ccc(C(F)(F)F)cc1 | MIC | 155 µM |
| N#CC1=C(N)OC(c2ccc(OC(F)(F)F)cc2)=CC1c1cccc([N+](=O)[O-])c1 (centres unmarked) | MIC | 124 µM |
| N#Cc1c(-c2ccc(Cl)cc2)cc(-c2ccc(C(F)(F)F)cc2)nc1N | MIC | 38 µM |
| N#Cc1c(-c2cccc([N+](=O)[O-])c2)cc(-c2ccc(C(F)(F)F)cc2)nc1N | MIC | 130 µM |

Input: Look up MIC: N#Cc1c(-c2ccc[nH]2)cc(-c2ccc(C(F)(F)F)cc2)nc1N
Output: 16 to 18 µM

Input: Which MIC reading was recorded for the compound N#Cc1c(-c2cccc(Cl)c2Cl)cc(-c2ccc(C(F)(F)F)cc2)nc1N ?
Output: 33 µM
